Assign pKd to each entry below.
# subject of test: Recombinant human his-tagged IGF 1R extracellular domain protein (human) (UniProt P08069)
# experimental protocol: SPR, captured IgG, IGF-1R ECD-his analyte, dissociation pH 7.4
The quantity pKd is defined as the negative base-10 logarithm of the molar concentration.

Query (binder): VRDN-02528 (antibody, V domains shown) VH: EVQLVQSGGGLVKPGGSLRLSCAASGFTFSSFAMHWVRQAPGKGLEWISVIDTRGATYYADSVKGRFTISRDNAKNSLYLQMNSLRAEDTAVYYCARLGNFYYGMDVWGQGTTVTVSS VL: EIVLTQSPGTLSVSPGERATLSCHASQSIGSSLHWYQQKPGQAPRLLIKYASQSLSGIPDRFSGSGSGTDFTLTISRLEPEDFAVYYCHQSSRLPHTFGQGTKVEIK ; field requested: pKd
9.60

What value of measured pKd is listed for VRDN-02501 (antibody, V domains shown) VH: EVQLVQSGGGLVKPGGSLRLSCAASHFTFSSFAMHWVRQAPGKGLEWISVIDTRGATYYADSVKGRFTISRDNAKNSLYLQMNSLRAEDTAVYYCARLGNFYYGMDVWGQGTTVTVSS VL: EIVLTQSPGTLSVSPGERATLSCRASQSIGSSLHWYQQKPGQAPRLLIKYASQSLSGIPDRFSGSGSGTDFTLTISRLEPEDFAVYYCHQSSRLPHTFGQGTKVEIK ?
9.04

Can you share its pKd? I mean this binder: VRDN-02513 (antibody, V domains shown) VH: EVQLVQSGGGLVKPGGSLRLSCAASGFTFSSFAMHWVRQAPGKGLEWISVIDTRHATYYADSVKGRFTISRDNAKNSLYLQMNSLRAEDTAVYYCARLGNFYYGMDVWGQGTTVTVSS VL: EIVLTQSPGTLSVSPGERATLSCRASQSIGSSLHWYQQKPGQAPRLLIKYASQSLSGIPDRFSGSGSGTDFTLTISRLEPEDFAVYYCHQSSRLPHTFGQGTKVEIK
8.97
